# ASSAY_REMARKS: self-splicing fitness, log relative to wild type (ln ratio); higher = more splicing; Tetrahymena group I intron in knt gene, E. coli kanamycin selection, DiMSum; sequences stand for … in CUCUCU…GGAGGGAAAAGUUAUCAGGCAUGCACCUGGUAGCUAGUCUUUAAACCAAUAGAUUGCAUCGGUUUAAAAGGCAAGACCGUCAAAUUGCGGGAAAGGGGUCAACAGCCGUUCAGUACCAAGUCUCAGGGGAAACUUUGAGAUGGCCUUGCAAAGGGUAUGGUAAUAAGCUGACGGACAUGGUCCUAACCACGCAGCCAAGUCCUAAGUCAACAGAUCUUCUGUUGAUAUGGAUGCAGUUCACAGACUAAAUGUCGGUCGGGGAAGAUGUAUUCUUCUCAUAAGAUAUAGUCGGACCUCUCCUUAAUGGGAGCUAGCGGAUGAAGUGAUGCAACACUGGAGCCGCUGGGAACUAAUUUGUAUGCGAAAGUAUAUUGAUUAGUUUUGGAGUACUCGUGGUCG;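 also: selection with 25 µg/mL kanamycin versus none on LB agar overnight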
# TEST_PARAMETERS: 37 °C
Classify as follows. Reported self-splicing fitness (ln) greater than or equal to -0.4: YES. Reported self-splicing fitness (ln) below: NO.

Some solved entries appear below for comparison.
Prompt: Form field: self-splicing fitness (ln) at least -0.4? Entry: CGUGAGCAAUAUUACGAAGG
Completion: NO

Prompt: Form field: self-splicing fitness (ln) at least -0.4? Entry: CUGUAGCAAUAUUACGAGGG
Completion: NO

***
Prompt: Form field: self-splicing fitness (ln) at least -0.4? Entry: ACAGAGCAAUAUUACGCGCC
Completion: NO

Prompt: Form field: self-splicing fitness (ln) at least -0.4? Entry: GACUAGCAAUAUUACGACAG
Completion: NO

----------
Measured self-splicing fitness (ln) by item
# ASSAY_REMARKS: self-splicing fitness, log relative to wild type (ln ratio); higher = more splicing; Tetrahymena group I intron in knt gene, E. coli kanamycin selection, DiMSum; sequences stand for … in CUCUCU…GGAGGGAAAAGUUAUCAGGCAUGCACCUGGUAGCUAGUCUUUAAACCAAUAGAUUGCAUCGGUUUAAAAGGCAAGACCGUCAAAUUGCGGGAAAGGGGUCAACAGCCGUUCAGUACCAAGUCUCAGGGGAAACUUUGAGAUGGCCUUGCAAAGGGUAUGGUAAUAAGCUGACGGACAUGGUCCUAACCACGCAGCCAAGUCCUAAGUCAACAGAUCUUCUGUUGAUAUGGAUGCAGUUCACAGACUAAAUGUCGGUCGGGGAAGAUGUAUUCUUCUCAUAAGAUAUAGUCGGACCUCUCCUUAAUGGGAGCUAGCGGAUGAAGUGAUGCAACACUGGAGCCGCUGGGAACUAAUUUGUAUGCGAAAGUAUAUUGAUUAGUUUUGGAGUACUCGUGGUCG
# TEST_PARAMETERS: 37 °C

# example entries with known answers
Prompt: Return self-splicing fitness (ln) for the following sequence: UCCCAGCAAUAUUACGGUCU
Completion: -0.794

Prompt: Return self-splicing fitness (ln) for the following sequence: CCUGAGCAAUAUUACGUAAU
Completion: -2.6

Prompt: Return self-splicing fitness (ln) for the following sequence: UAGUAGCAAUAUUACGUUUA
Completion: -1.22

Prompt: Return self-splicing fitness (ln) for the following sequence: AGGGAGCAAUAUUACGCAGA
Completion: -3.27

Prompt: Return self-splicing fitness (ln) for the following sequence: GUUAAGCAAUAUUACGACCG
Completion: -1.22

Prompt: Return self-splicing fitness (ln) for the following sequence: CUACAGCAAUAUUACGCGGG
Completion: -2.56

Prompt: Return self-splicing fitness (ln) for the following sequence: AUCCAGCAAUAUUACGAGAC
Completion: -2.01

Prompt: Return self-splicing fitness (ln) for the following sequence: GGUCAGCAAUAUUACGGGUU
Completion: -0.194

Prompt: Return self-splicing fitness (ln) for the following sequence: AAAAAGCAAUAUUACGUGUA
Completion: -1.33

Prompt: Return self-splicing fitness (ln) for the following sequence: UAACAGCAAUAUUACGAAUG
Completion: -0.788

Kindly consider the entry below.
Prompt: Return self-splicing fitness (ln) for the following sequence: UGCUAGCAAUAUUACGCCGG
Completion: -1.88

----------
# ASSAY_REMARKS: self-splicing fitness, log relative to wild type (ln ratio); higher = more splicing; Tetrahymena group I intron in knt gene, E. coli kanamycin selection, DiMSum; sequences stand for … in CUCUCU…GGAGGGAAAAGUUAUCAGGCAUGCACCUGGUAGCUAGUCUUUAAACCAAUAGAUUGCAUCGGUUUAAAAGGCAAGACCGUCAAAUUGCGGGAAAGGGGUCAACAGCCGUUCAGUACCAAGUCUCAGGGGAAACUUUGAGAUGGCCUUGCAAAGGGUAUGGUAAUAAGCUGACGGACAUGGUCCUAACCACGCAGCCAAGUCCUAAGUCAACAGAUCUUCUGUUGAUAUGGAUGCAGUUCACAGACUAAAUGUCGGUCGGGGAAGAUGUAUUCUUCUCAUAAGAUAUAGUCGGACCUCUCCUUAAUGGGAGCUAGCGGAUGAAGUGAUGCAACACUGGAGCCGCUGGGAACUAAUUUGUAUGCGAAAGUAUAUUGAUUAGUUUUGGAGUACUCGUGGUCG
# TEST_PARAMETERS: 30 °C
MEASURED_PROPERTY: self-splicing fitness (ln)
Write the number on its own, no unit after it.

# example entries with known answers
Prompt: Return self-splicing fitness (ln) for the following sequence: GACGAGCAAUAUUACGCCCU
Completion: -2.99

Prompt: Return self-splicing fitness (ln) for the following sequence: UCGAAGCAAUAUUACGCUGG
Completion: -1.85

Prompt: Return self-splicing fitness (ln) for the following sequence: CCUAAGCAAUAUUACGCUUU
Completion: -3.09

Prompt: Return self-splicing fitness (ln) for the following sequence: UUUAAGCAAUAUUACGAUAU
Completion: -2.91

Prompt: Return self-splicing fitness (ln) for the following sequence: UGGAAGCAAUAUUACGACUG
Completion: -1.26

Prompt: Return self-splicing fitness (ln) for the following sequence: CCCUAGCAAUAUUACGCCAA
Completion: -3.03

Prompt: Return self-splicing fitness (ln) for the following sequence: AAGUAGCAAUAUUACGCAAC
Completion: -3.33

Prompt: Return self-splicing fitness (ln) for the following sequence: ACUUAGCAAUAUUACGAUGA
Completion: -0.609

***
Prompt: Return self-splicing fitness (ln) for the following sequence: GAACAGCAAUAUUACGAUAC
Completion: -0.825

Prompt: Return self-splicing fitness (ln) for the following sequence: GUCUAGCAAUAUUACGCGGG
Completion: -3.1

Prompt: Return self-splicing fitness (ln) for the following sequence: GACUAGCAAUAUUACGAGAG
Completion: -3.75

----------
# ASSAY_REMARKS: self-splicing fitness, log relative to wild type (ln ratio); higher = more splicing; Tetrahymena group I intron in knt gene, E. coli kanamycin selection, DiMSum; sequences stand for … in CUCUCU…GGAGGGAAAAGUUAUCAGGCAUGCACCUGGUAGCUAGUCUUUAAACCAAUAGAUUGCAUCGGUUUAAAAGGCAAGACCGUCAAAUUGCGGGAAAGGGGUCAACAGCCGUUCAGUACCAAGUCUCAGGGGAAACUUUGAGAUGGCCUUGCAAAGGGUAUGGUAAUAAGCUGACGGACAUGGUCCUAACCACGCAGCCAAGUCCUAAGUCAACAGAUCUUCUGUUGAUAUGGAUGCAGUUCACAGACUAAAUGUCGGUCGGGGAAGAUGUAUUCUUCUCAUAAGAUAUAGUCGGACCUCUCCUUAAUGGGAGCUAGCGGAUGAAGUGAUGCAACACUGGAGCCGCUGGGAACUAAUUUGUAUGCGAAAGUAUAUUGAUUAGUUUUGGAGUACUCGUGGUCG
# TEST_PARAMETERS: 30 °C
MEASURED_PROPERTY: self-splicing fitness (ln)
Write the number on its own, no unit after it.

Prompt: Return self-splicing fitness (ln) for the following sequence: UGCCAGCAAUAUUACGAGUG
Completion: -1.32

Prompt: Return self-splicing fitness (ln) for the following sequence: GUGCAGCAAUAUUACGGUAA
Completion: -1.5

Kindly consider the entry below.
Prompt: Return self-splicing fitness (ln) for the following sequence: CCCUAGCAAUAUUACGCGUG
Completion: -5.09

----------
# ASSAY_REMARKS: self-splicing fitness, log relative to wild type (ln ratio); higher = more splicing; Tetrahymena group I intron in knt gene, E. coli kanamycin selection, DiMSum; sequences stand for … in CUCUCU…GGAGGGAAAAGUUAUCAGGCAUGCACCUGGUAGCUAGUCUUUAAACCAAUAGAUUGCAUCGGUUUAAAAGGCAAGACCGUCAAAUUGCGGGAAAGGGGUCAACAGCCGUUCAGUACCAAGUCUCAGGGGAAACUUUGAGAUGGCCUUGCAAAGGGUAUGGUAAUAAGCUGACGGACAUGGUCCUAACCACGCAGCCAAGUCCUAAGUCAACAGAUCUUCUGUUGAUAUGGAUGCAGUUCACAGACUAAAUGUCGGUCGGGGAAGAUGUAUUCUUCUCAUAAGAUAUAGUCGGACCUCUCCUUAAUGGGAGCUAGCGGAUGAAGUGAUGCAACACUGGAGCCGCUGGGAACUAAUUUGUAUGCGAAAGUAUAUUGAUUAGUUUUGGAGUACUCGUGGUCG
# TEST_PARAMETERS: 37 °C
Classify as follows. Reported self-splicing fitness (ln) greater than or equal to -1: T. Reported self-splicing fitness (ln) below: F.

Some solved entries appear below for comparison.
Prompt: Form field: self-splicing fitness (ln) at least -1? Entry: GGUGAGCAAUAUUACGACAC
Completion: T

Prompt: Form field: self-splicing fitness (ln) at least -1? Entry: UAUAAGCAAUAUUACGCAGC
Completion: F

Prompt: Form field: self-splicing fitness (ln) at least -1? Entry: GCAGAGCAAUAUUACGGUCC
Completion: F

Prompt: Form field: self-splicing fitness (ln) at least -1? Entry: GAAUAGCAAUAUUACGGGCU
Completion: F

Prompt: Form field: self-splicing fitness (ln) at least -1? Entry: GUGGAGCAAUAUUACGGAGU
Completion: F

Prompt: Form field: self-splicing fitness (ln) at least -1? Entry: GACCAGCAAUAUUACGACUU
Completion: T

Prompt: Form field: self-splicing fitness (ln) at least -1? Entry: GUAAAGCAAUAUUACGUGAU
Completion: F

Prompt: Form field: self-splicing fitness (ln) at least -1? Entry: AGGCAGCAAUAUUACGCUAG
Completion: F

***
Prompt: Form field: self-splicing fitness (ln) at least -1? Entry: AGGGAGCAAUAUUACGGGUG
Completion: F

Prompt: Form field: self-splicing fitness (ln) at least -1? Entry: AAUCAGCAAUAUUACGAUUC
Completion: F

Prompt: Form field: self-splicing fitness (ln) at least -1? Entry: GUGUAGCAAUAUUACGUGUU
Completion: F

Prompt: Form field: self-splicing fitness (ln) at least -1? Entry: CUCGAGCAAUAUUACGGAGU
Completion: F

Prompt: Form field: self-splicing fitness (ln) at least -1? Entry: AAUUAGCAAUAUUACGGCGA
Completion: T
